# Test system: Fibroblast
# procedureSummary: Incucyte cell viability with human fibroblast; also: unitless GR value; below 1 slowed growth and below 0 cell loss
# Type: toxicity, cell-based
# recordedConditions: 24 h, 10 µM, compound concentration 10 uM, replicate number 1
# strict inequality: Growth Rate < 0.8 yields T, everything else yields F

Cc1cc(-c2nc(-c3ccc(OC(F)(F)F)cc3)no2)nn1Cc1ccnc(N2CCN(C3CC3)CC2)c1
T
Cc1nn(-c2nc3ccc(Cl)c(Cl)c3[nH]2)c(O)c1C1OC(=O)c2ccccc21 (stereo not given)
F
O=C(Nc1ccc(Cl)nc1)c1ccc(Cl)cc1
T
CN(C1CCc2c(c3ccccc3n2CC(=O)O)C1)S(=O)(=O)c1ccc(F)cc1 (stereo not given)
F

These data points were gathered from ChEMBL document CHEMBL5303304.
